Target: Translocator protein (Rattus norvegicus, UniProt P16257)
Sequence (P16257 whole entry, looked up): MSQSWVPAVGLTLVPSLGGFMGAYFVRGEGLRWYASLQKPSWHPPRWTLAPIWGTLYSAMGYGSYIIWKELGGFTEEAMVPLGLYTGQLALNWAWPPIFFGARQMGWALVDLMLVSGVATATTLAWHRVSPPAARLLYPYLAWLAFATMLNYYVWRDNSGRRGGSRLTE
Assay: Displacement of [3H]-PK11195 from TSPO in rat C6 cell lysate after 2 hrs by liquid scintillation counting
pKi: −log10 of the molar value.
Returns TRUE if the recorded pKi is greater than or equal to 7, and FALSE otherwise.

A selection of reference data follows.
compound=CCc1cc(CC)n2nc(-c3ccc(OC)cc3)c(CC(=O)N(CC)C(C)(C)C)c2n1 classname=TRUE
compound=CCc1cc(CC)n2nc(-c3ccc(OC)cc3)c(CC(=O)N(Cc3ccccc3)Cc3ccccc3)c2n1 classname=FALSE
compound=CCc1cc(CC)n2nc(-c3ccc(OC)cc3)c(CC(=O)N(CC)c3ccccc3)c2n1 classname=TRUE
compound=CCCCN(CCCC)C(=O)Cc1c(-c2ccc(OC)cc2)nn2c(CC)cc(CC)nc12 classname=TRUE
compound=CCCCCCN(CCCCCC)C(=O)Cc1c(-c2ccc(OC)cc2)nn2c(CC)cc(CC)nc12 classname=TRUE

Here is the next item to consider.
## Input Is it the case that CCc1cc(CC)n2nc(-c3ccc(OC)cc3)c(CC(=O)N(C(C)CC)C(C)CC)c2n1 (centres undefined) has pKi reaching or exceeding 7?
## Output TRUE
